GI50 by entry:
System: SNB-19
assayText: NCI tumour cell line growth inhibition, 48 h
Active and inactive are the calls of the source. Cut-off read from the data, not from the text of the source: active = GI50 up to about 1.1 µM and inactive = higher.

Field: example entries. Status: answers known.
Cn1cnc([N+](=O)[O-])c1Sc1nc(N)nc2c1ncn2[C@H]1C[C@H](O)[C@@H](CO)O1 = 62.1 µM (inactive)
N#CC(C#N)SCc1ccccc1 = 21 µM (inactive)
Cn1cc(C(=O)C2CCCCC2)ccc1=O = > 100 µM (inactive)

### Prompt # lookup: GI50 of `CC1(C)CC(=O)c2c(nc3ccc4ccccc4c3c2-c2ccc(NC(=O)CCCCCCCCC(=O)Nc3ccc(-c4c5c(nc6ccc7ccccc7c46)CC(C)(C)CC5=O)cc3)cc2)C1`
### Response > 100 µM (inactive)

### Prompt Repeat for the following compound: BrC12C3C4C5C(C(C43)C13OCCO3)C52 (stereo unspecified)
### Response > 100 µM (inactive)

----------
System: CCRF-CEM
assayText: NCI tumour cell line growth inhibition, 48 h
Activity calls are given as the source filed them. Rule as the data show it: active = GI50 up to about 1.1 µM and inactive = higher.
measuredEndpoint: GI50

O=C1C2C(C(=O)N1c1ccccc1)C1c3ccccc3C2C2C(=O)N(c3ccccc3)C(=O)C21 (stereo unspecified) = 4.9 µM (inactive)

### Prompt # lookup: GI50 of `Cc1ccc(-c2c(C#N)c(-c3ccc(Cl)cc3)c(C#N)c(=O)n2NS(=O)(=O)c2ccccc2)cc1`
### Response 34.4 µM (inactive)

### Prompt Repeat for the following compound: `FC(F)(F)C1(Br)C(c2ccccc2)=C1c1ccccc1`
### Response 4.43 µM (inactive)

### Prompt Repeat for the following compound: `CN(C)CCNc1ccc([N+](=O)[O-])c2sc3ccccc3c(=O)c12`
### Response 2.26 µM (inactive)

### Prompt Repeat for the following compound: `CCSc1nnc(-c2ccccc2)nc1Cc1ccc(OC)cc1`
### Response 69 µM (inactive)

### Prompt Repeat for the following compound: CCC12CCC(O)C1N(C)CCC2Sc1ccccc1 (stereo unspecified)
### Response 77.4 µM (inactive)

----------
System: KM-20L2
assayText: NCI tumour cell line growth inhibition, 48 h
Calls of active or inactive are those of the source. Rule as the data show it: active = GI50 up to about 1.1 µM and inactive = higher.
GI50 by entry:

COc1ccc([C@H]2CC3C(=O)N(c4ccc(OC)cc4)C(=O)C3c3[nH]c4ccccc4c32)cc1 (stereo not given in full) = 69.5 µM (inactive)
N#CCC(=O)N/N=C(\C(=O)Nc1ccc(Cl)c(Cl)c1)C1CN(c2ccccc2)N=C1N (stereo not given) = > 100 µM (inactive)
O=S1(=O)C(=C(c2ccccc2)c2ccccc2)S(=O)(=O)c2ccccc21 = > 100 µM (inactive)
COC(=O)c1cc(CC(C)C)c2c(c1)[nH]c1ccccc12 = > 100 µM (inactive)

// next entry
### Prompt # lookup: GI50 of `O=C(O)[C@H](NS(=O)(=O)c1ccc2ccccc2c1)c1ccccc1`
### Response > 100 µM (inactive)

----------
GI50 by entry:
Test system: NCI-H460
assayText: NCI tumour cell line growth inhibition, 48 h
Calls of active or inactive are those of the source. No stated cut-off is given here; in the data, active = GI50 up to about 1.1 µM and inactive = higher.

Field: example entries. Status: answers known.
C1CN(P2(N3CC3)=NP(N3CC3)(N3CC3)=NP(N3CC3)(N3CC3)=N2)CCO1 (configuration not stated) = 4.57 µM (inactive)
O=C(CCCc1ccccn1)c1ccccc1 = > 100 µM (inactive)
O=C1CCCCN1C(=O)c1ccc([N+](=O)[O-])cc1 = > 100 µM (inactive)
NC1=NCC(CN2CCCCC2)O1 (configuration not stated) = > 100 µM (inactive)
COc1ccc(/C=C2/CSCC3=C2N=C(S)NC3c2ccc(OC)c(OC)c2OC)c(OC)c1OC (configuration not stated) = 27.6 µM (inactive)

### Prompt # lookup: GI50 of `CCOC(=O)c1csc(CCCCCCc2nc(C(=O)OCC)cs2)n1`
### Response 29.7 µM (inactive)
